Could you please report measured Log2 fold-change of gene expression: PTGS1 for the items listed next?
- System: angiogenesis genes in dermal microvascular endothelial cells
- TEST: Real time RT-PCR of angiogenesis gene expression during endothelial tube formation
- Assay type: cell-based
- ASSAY_SETUP: 1 μM SM, 24 hours
One number for each entry.

Known results for molecules:
- COc1ccc(CC2C(=O)NC(C)C(=O)N(C)C3Cc4ccc(cc4)Oc4cc(ccc4O)CC(C(=O)NC(C)C(=O)NC(C)C(=O)N2C)N(C)C3=O)cc1 (stereo not drawn): 2.9
- CCC(=O)OCN1C(=O)C=CC1=O: −2.4
- COC(=O)C1CC(=O)C(C(=O)OC)CC1=O (stereo not drawn): 0.8

Return reported Log2 fold-change of gene expression: PTGS1 values for all items listed beneath this line.
1. COc1cc2cc(c1Cl)N(C)C(=O)CC(OC(=O)C(C)C)C1(C)OC1C(C)C1CC(O)(NC(=O)O1)C(OC)/C=C/C=C(\C)C2 (stereo not drawn)
2. CC1CCN(CC[S-])CC1.O.O.[Cl][Pt+]
3. O=C1C(=Cc2ccccc2)C(NC2CCCCC2)c2ccccc21 (stereo not drawn)

Result ::
1: 2.0; 2: 1.1; 3: 0.3

----------
- Tested on: angiogenesis genes in dermal microvascular endothelial cells
- TEST: Real time RT-PCR of angiogenesis gene expression during endothelial tube formation
- Type: cell-based
- ASSAY_SETUP: 1 μM SM, 24 hours; 4th listing (r196)
Could you please report measured Log2 fold-change of gene expression: GADPH for the items listed next?
Answers are plain numbers.

Known results for compounds:
• COc1cc2cc(c1Cl)N(C)C(=O)CC(OC(=O)C(C)C)C1(C)OC1C(C)C1CC(O)(NC(=O)O1)C(OC)/C=C/C=C(\C)C2 (stereo not drawn) [compound 292222] = −0.2
• CC1CCN(CC[S-])CC1.O.O.[Cl][Pt+] [compound 292596] = 0.4
• O=C1C(=Cc2ccccc2)C(NC2CCCCC2)c2ccccc21 (stereo not drawn) [compound 150117] = −0.5
• CCC(=O)OCN1C(=O)C=CC1=O [compound 19630] = −1.6
• COC(=O)C1CC(=O)C(C(=O)OC)CC1=O (stereo not drawn) [Compound 122567] = −2.0

Entry COc1ccc(CC2C(=O)NC(C)C(=O)N(C)C3Cc4ccc(cc4)Oc4cc(ccc4O)CC(C(=O)NC(C)C(=O)NC(C)C(=O)N2C)N(C)C3=O)cc1 (stereo not drawn) [compound 259969] , Log2 fold-change of gene expression: GADPH reported as −2.1

----------
- TESTED_TARGET: UniProtKB P35968
- Sequence (P35968 20-1356): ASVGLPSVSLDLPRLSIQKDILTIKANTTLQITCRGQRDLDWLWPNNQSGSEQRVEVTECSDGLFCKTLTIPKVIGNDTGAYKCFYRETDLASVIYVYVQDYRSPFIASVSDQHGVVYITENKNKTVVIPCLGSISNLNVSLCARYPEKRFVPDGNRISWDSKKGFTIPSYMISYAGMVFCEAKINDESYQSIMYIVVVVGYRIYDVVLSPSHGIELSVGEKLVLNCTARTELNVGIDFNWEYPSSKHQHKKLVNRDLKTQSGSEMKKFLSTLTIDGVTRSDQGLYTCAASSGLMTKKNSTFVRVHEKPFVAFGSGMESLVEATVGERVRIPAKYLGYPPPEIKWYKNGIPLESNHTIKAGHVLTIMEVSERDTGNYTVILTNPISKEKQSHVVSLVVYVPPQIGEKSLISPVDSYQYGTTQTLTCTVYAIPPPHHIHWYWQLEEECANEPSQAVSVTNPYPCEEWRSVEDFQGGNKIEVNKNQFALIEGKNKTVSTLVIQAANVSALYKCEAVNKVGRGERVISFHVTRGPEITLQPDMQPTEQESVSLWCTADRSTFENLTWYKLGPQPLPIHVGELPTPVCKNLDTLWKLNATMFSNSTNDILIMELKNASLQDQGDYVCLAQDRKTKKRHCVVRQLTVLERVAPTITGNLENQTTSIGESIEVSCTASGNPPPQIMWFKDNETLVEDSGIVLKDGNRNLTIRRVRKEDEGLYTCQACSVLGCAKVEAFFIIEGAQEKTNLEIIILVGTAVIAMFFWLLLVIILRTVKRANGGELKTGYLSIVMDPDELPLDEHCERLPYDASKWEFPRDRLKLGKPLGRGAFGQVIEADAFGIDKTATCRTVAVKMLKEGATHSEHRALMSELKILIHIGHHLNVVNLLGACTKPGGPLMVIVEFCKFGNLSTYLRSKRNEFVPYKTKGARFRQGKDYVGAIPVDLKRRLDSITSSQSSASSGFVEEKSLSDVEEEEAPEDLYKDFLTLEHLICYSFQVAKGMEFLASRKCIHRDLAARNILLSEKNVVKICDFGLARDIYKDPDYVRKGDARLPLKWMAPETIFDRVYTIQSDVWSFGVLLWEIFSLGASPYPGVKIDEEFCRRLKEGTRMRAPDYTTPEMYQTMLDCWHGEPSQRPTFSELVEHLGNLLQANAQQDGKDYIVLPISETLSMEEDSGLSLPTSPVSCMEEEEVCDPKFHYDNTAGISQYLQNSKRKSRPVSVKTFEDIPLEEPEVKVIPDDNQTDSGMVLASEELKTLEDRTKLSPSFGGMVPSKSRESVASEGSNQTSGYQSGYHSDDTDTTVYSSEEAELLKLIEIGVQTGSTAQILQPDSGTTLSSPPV
- TEST: SelectScreen kinase activity profiling, KDR(VEGFR2)
- Format: biochemical
- Parameters: concentration or dose not given beside the values
- ASSAY_SETUP: KDR(VEGFR2); mean of two independent trials
Think of 10% as a floor: if Mean % Inhibition stands on it or above, it is Condition met; beneath it, Condition not met.

Solved entries (count: 10):
* OC(c1cc(-c2ccccc2)nc2c1ccc1ccccc12)C1CCCCN1 (centres unmarked) | Condition not met
* COc1ccc(CC2C(=O)NC(C)C(=O)N(C)C3C(=O)N(C)C(Cc4ccc(O)c(c4)Oc4ccc(cc4)C3O)C(=O)NC(C)C(=O)NC(C)C(=O)N2C)cc1 (centres unmarked) | Condition not met
* COc1ccc(NCc2c(O)ccc3ccccc23)cc1 | Condition met
* CC1(C)CC(Nc2ccc(Nc3ccccc3)cc2)CC(C)(C)N1 | Condition met
* CSC(=[SH+])[N-]N=C(c1ccccn1)c1ccccn1.[Cu][Br] | Condition met
* O=C(c1no[n+]([O-])c1C(=O)c1csc2ccccc12)c1csc2ccccc12 | Condition not met
* COc1cc2cc(c1Cl)N(C)C(=O)CC(OC(=O)C(C)C)C1(C)OC1C(C)C1CC(O)(NC(=O)O1)C(OC)/C=C/C=C(\C)C2 (centres unmarked) | Condition not met
* O=C1c2ccccc2NC(c2cc(Cl)cc(Cl)c2O)N1CCc1ccccn1 (centres unmarked) | Condition not met
* CC(C)(C)c1c2c(c(C(C)(C)C)c3c1OCN(Cc1ccccc1)C3)OCN(Cc1ccccc1)C2 | Condition met
* CS(=O)(=O)c1ccc(/C=N/NC(N)=S)cc1 | Condition met

Please look at the following compound next.
Query :: Threshold query (Mean % Inhibition >= 10%) on CC1(C)C2CCC1(C)C(OC(=O)CSC#N)C2 (centres unmarked)
Result :: Condition not met

----------
- Test system: angiogenesis genes in dermal microvascular endothelial cells
- TEST: Real time RT-PCR of angiogenesis gene expression during endothelial tube formation
- Type: cell-based
- ASSAY_SETUP: 1 μM SM, 24 hours
Think of 0.1 as a floor: if Log2 fold-change of gene expression: GRRP1 stands on it or above, it is True; beneath it, False.

Query :: Threshold query (Log2 fold-change of gene expression: GRRP1 >= 0.1) on COc1ccc(CC2C(=O)NC(C)C(=O)N(C)C3Cc4ccc(cc4)Oc4cc(ccc4O)CC(C(=O)NC(C)C(=O)NC(C)C(=O)N2C)N(C)C3=O)cc1 (stereo not drawn)
Result :: True

----------
- System: angiogenesis genes in dermal microvascular endothelial cells
- TEST: Real time RT-PCR of angiogenesis gene expression during endothelial tube formation
- Format: cell-based
- ASSAY_SETUP: 1 μM SM, 24 hours
Could you please report measured Log2 fold-change of gene expression: PECAM1 for the items listed next?
One number for each entry.

Known results for compounds:
• COc1cc2cc(c1Cl)N(C)C(=O)CC(OC(=O)C(C)C)C1(C)OC1C(C)C1CC(O)(NC(=O)O1)C(OC)/C=C/C=C(\C)C2 (stereo not drawn) = −0.7
• O=C1C(=Cc2ccccc2)C(NC2CCCCC2)c2ccccc21 (stereo not drawn) = −2.5
• CCC(=O)OCN1C(=O)C=CC1=O = −2.6
• COc1ccc(CC2C(=O)NC(C)C(=O)N(C)C3Cc4ccc(cc4)Oc4cc(ccc4O)CC(C(=O)NC(C)C(=O)NC(C)C(=O)N2C)N(C)C3=O)cc1 (stereo not drawn) = −3.0
• COC(=O)C1CC(=O)C(C(=O)OC)CC1=O (stereo not drawn) = −2.7

Alright, here's another compound for you.
Entry CC1CCN(CC[S-])CC1.O.O.[Cl][Pt+] , Log2 fold-change of gene expression: PECAM1 reported as −1.8

----------
- Test system: angiogenesis genes in dermal microvascular endothelial cells
- TEST: Real time RT-PCR of angiogenesis gene expression during endothelial tube formation
- Format: cell-based
- ASSAY_SETUP: 1 μM SM, 24 hours
Could you please report measured Log2 fold-change of gene expression: SERPINF1 for the items listed next?
One number for each entry.

* COc1ccc(CC2C(=O)NC(C)C(=O)N(C)C3Cc4ccc(cc4)Oc4cc(ccc4O)CC(C(=O)NC(C)C(=O)NC(C)C(=O)N2C)N(C)C3=O)cc1 (stereo not drawn) | 6.5
* COC(=O)C1CC(=O)C(C(=O)OC)CC1=O (stereo not drawn) | 0.2
* O=C1C(=Cc2ccccc2)C(NC2CCCCC2)c2ccccc21 (stereo not drawn) | 1.5
* CCC(=O)OCN1C(=O)C=CC1=O | −0.8
* CC1CCN(CC[S-])CC1.O.O.[Cl][Pt+] | 0.7

Alright, here's another compound for you.
Entry COc1cc2cc(c1Cl)N(C)C(=O)CC(OC(=O)C(C)C)C1(C)OC1C(C)C1CC(O)(NC(=O)O1)C(OC)/C=C/C=C(\C)C2 (stereo not drawn) , Log2 fold-change of gene expression: SERPINF1 reported as 2.3

----------
Could you please report measured Log2 fold-change of gene expression: IL1B for the items listed next?
- Tested on: angiogenesis genes in dermal microvascular endothelial cells
- TEST: Real time RT-PCR of angiogenesis gene expression during endothelial tube formation
- Assay type: cell-based
- ASSAY_SETUP: 1 μM SM, 24 hours
Answers are plain numbers.

Known results for compounds:
- CC1CCN(CC[S-])CC1.O.O.[Cl][Pt+]: −4.1
- CCC(=O)OCN1C(=O)C=CC1=O: 0.2
- COc1ccc(CC2C(=O)NC(C)C(=O)N(C)C3Cc4ccc(cc4)Oc4cc(ccc4O)CC(C(=O)NC(C)C(=O)NC(C)C(=O)N2C)N(C)C3=O)cc1 (stereo not drawn): 1.3
- COc1cc2cc(c1Cl)N(C)C(=O)CC(OC(=O)C(C)C)C1(C)OC1C(C)C1CC(O)(NC(=O)O1)C(OC)/C=C/C=C(\C)C2 (stereo not drawn): 4.3
- O=C1C(=Cc2ccccc2)C(NC2CCCCC2)c2ccccc21 (stereo not drawn): 9.5

Alright, here's another compound for you.
Entry COC(=O)C1CC(=O)C(C(=O)OC)CC1=O (stereo not drawn) ; assay system angiogenesis genes in dermal microvascular endothelial cells; Log2 fold-change of gene expression: IL1B recorded at −0.1

----------
- Test system: angiogenesis genes in dermal microvascular endothelial cells
- TEST: Real time RT-PCR of angiogenesis gene expression during endothelial tube formation
- Format: cell-based
- ASSAY_SETUP: 1 μM SM, 24 hours
Think of -0.5 as a floor: if Log2 fold-change of gene expression: 23001 stands on it or above, it is Fulfilled; beneath it, Not fulfilled.

• COc1cc2cc(c1Cl)N(C)C(=O)CC(OC(=O)C(C)C)C1(C)OC1C(C)C1CC(O)(NC(=O)O1)C(OC)/C=C/C=C(\C)C2 (stereo not drawn) = Not fulfilled
• CCC(=O)OCN1C(=O)C=CC1=O = Fulfilled
• O=C1C(=Cc2ccccc2)C(NC2CCCCC2)c2ccccc21 (stereo not drawn) = Not fulfilled

Query :: Threshold query (Log2 fold-change of gene expression: 23001 >= -0.5) on CC1CCN(CC[S-])CC1.O.O.[Cl][Pt+]
Result :: Fulfilled

Query :: Threshold query (Log2 fold-change of gene expression: 23001 >= -0.5) on COc1ccc(CC2C(=O)NC(C)C(=O)N(C)C3Cc4ccc(cc4)Oc4cc(ccc4O)CC(C(=O)NC(C)C(=O)NC(C)C(=O)N2C)N(C)C3=O)cc1 (stereo not drawn)
Result :: Fulfilled
